# TESTED TARGET: Endoplasmic reticulum aminopeptidase 1 (Homo sapiens) (UniProt Q9NZ08)
# Sequence (Q9NZ08 whole entry, looked up): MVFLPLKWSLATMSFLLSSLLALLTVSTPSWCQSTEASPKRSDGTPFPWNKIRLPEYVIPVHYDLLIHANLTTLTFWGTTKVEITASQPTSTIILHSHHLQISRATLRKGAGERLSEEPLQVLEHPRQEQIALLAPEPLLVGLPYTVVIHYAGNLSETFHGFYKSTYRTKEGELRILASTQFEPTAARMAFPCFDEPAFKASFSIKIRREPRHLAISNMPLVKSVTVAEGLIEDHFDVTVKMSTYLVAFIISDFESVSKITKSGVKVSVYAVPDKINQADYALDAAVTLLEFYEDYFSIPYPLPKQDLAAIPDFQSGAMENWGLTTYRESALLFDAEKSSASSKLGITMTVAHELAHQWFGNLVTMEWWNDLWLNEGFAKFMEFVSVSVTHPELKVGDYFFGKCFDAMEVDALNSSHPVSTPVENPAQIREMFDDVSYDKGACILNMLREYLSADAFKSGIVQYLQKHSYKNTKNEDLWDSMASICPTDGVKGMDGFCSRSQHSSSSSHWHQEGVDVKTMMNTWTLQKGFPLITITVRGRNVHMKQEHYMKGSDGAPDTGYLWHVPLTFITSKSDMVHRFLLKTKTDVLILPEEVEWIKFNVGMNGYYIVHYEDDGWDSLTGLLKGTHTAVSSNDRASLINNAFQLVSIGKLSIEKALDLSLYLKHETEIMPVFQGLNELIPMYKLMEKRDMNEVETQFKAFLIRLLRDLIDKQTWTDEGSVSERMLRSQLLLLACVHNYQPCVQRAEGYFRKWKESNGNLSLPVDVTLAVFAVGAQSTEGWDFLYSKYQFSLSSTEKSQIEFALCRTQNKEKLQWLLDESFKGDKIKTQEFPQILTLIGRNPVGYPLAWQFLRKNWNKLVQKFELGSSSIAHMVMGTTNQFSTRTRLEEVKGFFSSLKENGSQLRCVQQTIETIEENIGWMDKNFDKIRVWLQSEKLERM
# RUN DESCRIPTION: ERAP1 aminopeptidase activity change, dose response, biochemical, fluorescence, cherry-pick (AID 743317)
# TEST PARAMETERS: ERAP1 enzyme, Leu-AMC fluorescence, 60 min
Records with an inconclusive call do not appear.
# key: entry, value: AC40
MEASURED QUANTITY: AC40

INSERT INTO assay_data (compound, measured_quantity, measured) VALUES
  ('C[C@H]1CN([C@@H](C)CO)C(=O)c2cccc(NC(=O)Nc3ccc(F)cc3)c2O[C@@H]1CN(C)C(=O)Nc1ccc2c(c1)OCO2', 'AC40', '5560 nM'),
  ('CCCN(C)C[C@@H]1OCCCC[C@@H](C)Oc2ccc(NS(=O)(=O)c3cccs3)cc2C(=O)N([C@H](C)CO)C[C@@H]1C', 'AC40', '107 nM'),
  ('Cc1cc(=O)oc2cc(OCC(=O)N3CCN(C(C)c4ccccc4)CC3)c(Cl)cc12 (stereo unspecified)', 'AC40', '6220 nM'),
  ('C[C@@H]1CCCCO[C@@H](CN(C)Cc2ccccc2)[C@H](C)CN([C@H](C)CO)C(=O)c2cc(NS(=O)(=O)c3cccs3)ccc2O1', 'AC40', '528 nM'),
  ('C[C@@H]1CCCCO[C@@H](CN(C)C(=O)CCC(F)(F)F)[C@@H](C)CN([C@@H](C)CO)C(=O)c2cc(NS(=O)(=O)c3ccccc3)ccc2O1', 'AC40', '1730 nM'),
  ('O=c1cc(CN2CCOCC2)c2cc(Cl)c(O)cc2o1', 'AC40', '4840 nM'),
  ('O=C(Nc1ccc(C(F)(F)F)cc1)N1[C@@H]2CNC[C@H]1C2c1ccc(-c2ccncc2)cc1 (stereo partly specified)', 'AC40', '7230 nM'),
  ('C[C@H](CO)N1C[C@H](C)[C@@H](CN(C)CC2CC2)Oc2c(NC(=O)Nc3ccc(C(F)(F)F)cc3)cccc2C1=O', 'AC40', '757 nM'),
  ('Cc1c(O)ccc2c(CN3CCN(Cc4ccccc4)CC3)cc(=O)oc12', 'AC40', '4100 nM'),
  ('COc1ccc(S(=O)(=O)Nc2ccc3c(c2)C(=O)N([C@@H](C)CO)C[C@H](C)[C@H](CN(C)C)OCCCC[C@@H](C)O3)cc1', 'AC40', '419 nM'),
  ('CCCN(C)C[C@@H]1OCCCC[C@@H](C)Oc2ccc(NS(=O)(=O)c3ccc(F)cc3)cc2C(=O)N([C@H](C)CO)C[C@@H]1C', 'AC40', '3880 nM'),
  ('C[C@@H]1CCCCO[C@H](CN(C)Cc2ccccc2)[C@H](C)CN([C@@H](C)CO)C(=O)c2cc(NS(=O)(=O)c3cccs3)ccc2O1', 'AC40', '607 nM'),
  ('C[C@@H]1CCCCO[C@H](CN(C)Cc2ccccc2)[C@H](C)CN([C@H](C)CO)C(=O)c2cc(NS(=O)(=O)c3ccccc3)ccc2O1', 'AC40', '358 nM'),
  ('C[C@@H]1CCCCO[C@@H](CN(C)CC2CC2)[C@@H](C)CN([C@H](C)CO)C(=O)c2cc(NS(=O)(=O)c3ccc(Cl)cc3)ccc2O1', 'AC40', '97.3 nM'),
  ('Cc1noc(C)c1S(=O)(=O)Nc1ccc2c(c1)C(=O)N([C@H](C)CO)C[C@@H](C)[C@@H](CN(C)CC1CCCCC1)OCCCC[C@@H](C)O2', 'AC40', '5460 nM'),
  ('CCN(CC)c1ccc2c(C)c(Cl)c(=O)oc2c1', 'AC40', '8190 nM'),
  ('COc1ccc(C(=O)O)cc1S(=O)(=O)Nc1cc(C(F)(F)F)ccc1N1CCCCC1', 'AC40', '246 nM'),
  ('C[C@@H]1CCCCO[C@@H](CN(C)Cc2ccccc2)[C@@H](C)CN([C@H](C)CO)C(=O)c2cc(NS(=O)(=O)c3cccs3)ccc2O1', 'AC40', '158 nM'),
  ('Cc1ccc2nc3c(cc(C(=O)NCc4ccccc4)c(=N)n3CCCn3ccnc3)c(=O)n2c1', 'AC40', '8840 nM'),
  ('COc1ccc(NC(=O)Nc2cccc3c2O[C@H](CN(C)Cc2ccc(C(=O)O)cc2)[C@H](C)CN([C@H](C)CO)C3=O)cc1', 'AC40', '5250 nM'),
  ('C[C@@H]1CCCCO[C@@H](CN(C)Cc2ccc3c(c2)OCO3)[C@@H](C)CN([C@@H](C)CO)C(=O)c2cc(NS(=O)(=O)c3ccccc3)ccc2O1', 'AC40', '563 nM'),
  ('O=c1cc(CN2CCN(Cc3ccccc3)CC2)c2ccc(O)cc2o1', 'AC40', '1680 nM'),
  ('CC1CN(Cc2cc(=O)oc3cc(O)c(Cl)cc23)CC(C)O1 (stereo unspecified)', 'AC40', '3400 nM'),
  ('COc1ccc(NC(=O)Nc2ccc3c(c2)C(=O)N([C@H](C)CO)C[C@@H](C)[C@@H](CN(C)Cc2ccc(C(=O)O)cc2)OCCCC[C@@H](C)O3)cc1', 'AC40', '652 nM'),
  ('C[C@@H]1CCCCO[C@@H](CN(C)C)[C@H](C)CN([C@@H](C)CO)C(=O)c2cc(NC(=O)Nc3ccc(C(F)(F)F)cc3)ccc2O1', 'AC40', '516 nM'),
  ('CC(=O)Oc1cc2oc(=O)cc(C)c2cc1Cl', 'AC40', '1020 nM'),
  ('COc1ccc(CNCc2c(O)c(Cl)cc3c(C)c(C)c(=O)oc23)c(OC)c1', 'AC40', '2190 nM'),
  ('Cc1ccccc1-c1ccc2c(c1)O[C@@H](CN(C)Cc1ccc(C(=O)O)cc1)[C@@H](C)CN([C@@H](C)CO)S2(=O)=O', 'AC40', '1240 nM'),
  ('COc1cc2cc(C(=O)N3CCN(Cc4ccc5c(c4)OCO5)CC3)c(=O)oc2cc1OC', 'AC40', '4580 nM'),
  ('C[C@@H]1CCCCO[C@@H](CN(C)C)[C@@H](C)CN([C@@H](C)CO)C(=O)c2cc(NS(=O)(=O)c3ccc(Cl)cc3)ccc2O1', 'AC40', '636 nM'),
  ('Cc1noc(C)c1S(=O)(=O)N(C)C[C@@H]1OCCCC[C@@H](C)Oc2ccc(NS(=O)(=O)c3cccs3)cc2C(=O)N([C@@H](C)CO)C[C@@H]1C', 'AC40', '< 80 nM');
